Quick reference for pIC50 among some compounds
molecular target: Cyclin-dependent kinase 4/cyclin D1 (Homo sapiens); test: Inhibition of human CDK4/cyclin-D1 using RB protein as substrate by [gamma-33P]-ATP assay
Sequence (P11802 whole entry): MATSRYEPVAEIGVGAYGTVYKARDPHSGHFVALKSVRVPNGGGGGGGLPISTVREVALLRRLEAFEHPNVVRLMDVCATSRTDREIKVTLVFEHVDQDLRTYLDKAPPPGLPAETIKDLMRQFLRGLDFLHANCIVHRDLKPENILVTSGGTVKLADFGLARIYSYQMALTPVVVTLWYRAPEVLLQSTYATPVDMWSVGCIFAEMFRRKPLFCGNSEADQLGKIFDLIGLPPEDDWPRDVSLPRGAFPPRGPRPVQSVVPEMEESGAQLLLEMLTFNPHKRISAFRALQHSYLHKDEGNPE
Sequence (P24385 whole entry, further chain): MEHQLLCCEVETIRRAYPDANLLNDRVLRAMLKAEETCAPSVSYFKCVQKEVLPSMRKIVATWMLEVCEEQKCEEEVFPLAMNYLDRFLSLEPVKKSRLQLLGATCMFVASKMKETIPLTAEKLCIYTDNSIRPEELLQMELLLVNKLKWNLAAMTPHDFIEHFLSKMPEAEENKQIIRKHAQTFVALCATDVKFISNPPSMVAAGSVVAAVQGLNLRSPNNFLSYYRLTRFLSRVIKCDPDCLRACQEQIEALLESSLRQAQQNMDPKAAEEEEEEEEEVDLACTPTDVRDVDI
pIC50: −log10 of the molar value.

{"columns": ["COMPOUND", "pIC50"],
 "data": [
  ["CN[C@@H](C)C(=O)N[C@H](C(=O)N1C[C@@H](NC(=O)CCCCCCCN2CCN(c3ccc(Nc4ncc5c(C)c(C(C)=O)c(=O)n(C6CCCC6)c5n4)nc3)CC2)C[C@H]1C(=O)Nc1c(F)cccc1F)C(C)(C)C", 8.30],
  ["CN[C@@H](C)C(=O)N[C@H](C(=O)N1C[C@@H](NC(=O)COCCOCCOCCN2CCN(c3ccc(Nc4ncc5c(C)c(C(C)=O)c(=O)n(C6CCCC6)c5n4)nc3)CC2)C[C@H]1C(=O)Nc1c(F)cccc1F)C(C)(C)C", 8.20],
  ["CC(=O)c1c(C)c2cnc(Nc3ccc(N4CCN(CCCCNC(=O)CNc5cccc6c5C(=O)N(C5CCC(=O)NC5=O)C6=O)CC4)cn3)nc2n(C2CCCC2)c1=O (stereo unspecified)", 8.50],
  ["CC(=O)c1c(C)c2cnc(Nc3ccc(N4CCN(CCOCCOCCNC(=O)CNc5cccc6c5C(=O)N(C5CCC(=O)NC5=O)C6=O)CC4)cn3)nc2n(C2CCCC2)c1=O (stereo unspecified)", 8.20],
  ["CC(=O)c1c(C)c2cnc(Nc3ccc(N4CCN(CCCCCCCC(=O)N[C@H](C(=O)N5C[C@H](O)C[C@H]5C(=O)N[C@@H](C)c5ccc(-c6scnc6C)cc5)C(C)(C)C)CC4)cn3)nc2n(C2CCCC2)c1=O", 7.50],
  ["CN[C@@H](C)C(=O)N[C@H](C(=O)N1C[C@@H](NC(=O)CCOCCOCCOCCNC(=O)CN2CCN(c3ccc(Nc4ncc5c(C)c(C(C)=O)c(=O)n(C6CCCC6)c5n4)nc3)CC2)C[C@H]1C(=O)Nc1c(F)cccc1F)C(C)(C)C", 7.80]
]}
